Data credit: patent US10471139B2

- assayed-target: human TLR8 (Homo sapiens)
- Construct: expressed in transfected cells; host or cells: HEK293 (HEK-Blue-8)
- Sequence (Q9NR97 27-1041): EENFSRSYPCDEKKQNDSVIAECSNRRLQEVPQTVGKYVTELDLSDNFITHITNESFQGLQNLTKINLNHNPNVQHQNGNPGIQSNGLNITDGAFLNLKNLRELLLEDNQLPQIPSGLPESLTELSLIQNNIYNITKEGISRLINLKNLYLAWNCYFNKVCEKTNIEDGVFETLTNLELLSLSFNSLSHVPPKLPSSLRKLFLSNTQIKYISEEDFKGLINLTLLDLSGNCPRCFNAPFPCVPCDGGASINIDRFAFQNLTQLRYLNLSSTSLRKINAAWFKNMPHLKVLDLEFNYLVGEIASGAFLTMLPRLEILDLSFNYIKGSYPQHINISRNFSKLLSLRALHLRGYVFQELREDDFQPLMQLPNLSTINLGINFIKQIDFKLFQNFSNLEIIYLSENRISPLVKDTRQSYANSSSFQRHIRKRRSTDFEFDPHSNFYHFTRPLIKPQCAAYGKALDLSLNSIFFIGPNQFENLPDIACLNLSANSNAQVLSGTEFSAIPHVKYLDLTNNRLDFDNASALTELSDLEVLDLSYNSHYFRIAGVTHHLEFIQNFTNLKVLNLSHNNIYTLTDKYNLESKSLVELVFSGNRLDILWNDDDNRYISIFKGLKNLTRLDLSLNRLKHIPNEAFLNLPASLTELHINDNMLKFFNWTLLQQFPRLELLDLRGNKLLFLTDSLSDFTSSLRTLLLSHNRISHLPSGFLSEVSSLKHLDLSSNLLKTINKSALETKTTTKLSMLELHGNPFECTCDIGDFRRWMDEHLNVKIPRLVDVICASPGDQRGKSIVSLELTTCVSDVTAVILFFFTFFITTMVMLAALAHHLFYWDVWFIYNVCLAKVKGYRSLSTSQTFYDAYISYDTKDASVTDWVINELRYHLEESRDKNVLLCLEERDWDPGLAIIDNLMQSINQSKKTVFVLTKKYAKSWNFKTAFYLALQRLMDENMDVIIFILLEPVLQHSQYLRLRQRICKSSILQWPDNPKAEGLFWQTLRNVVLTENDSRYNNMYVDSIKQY
- experiment: Human TLR8 reporter gene assay (NF-κB induction), HEK-Blue-8 cells
- Format: cell-based
- condition-set: human TLR 8-specific reporter gene assays; read-out: hTLR8 Agonistic Activity (EC50)
quantity-measured: EC50 (µM)

Examples with answers:
>>> print(df.to_string())
                                   molecule  recorded_value
0                  CCCCCn1c(N)nc2c(N)cccc21             6.6
1  CCCCCn1c(N)nc2ccc(C)cc21 [Compound A31c]            7.21
2  CCCCCn1c(N)nc2c(N(C)C)cccc21 [Compound A31k]            7.12
3  CCCCCn1c(N)nc2cccc(C)c21 [Compound A31d]            6.61
4  CCCCCn1c(N)nc2cc(C)ccc21 [Compound A31b]            4.57
5                  CCCCCn1c(N)nc2c(O)cccc21            5.01

A. CCCCCCn1c(N)nc2ccccc21 [Compound A8c, 1-Hexyl-1H-benzo[d]imidazol-2-amine]
B. CCCCCn1c(N)nc2c(CC)cccc21 [Compound A31j]
C. CCCCn1c(N)nc2ccccc21 [Compound A8a, 1-butyl-1H-benz[d]imidazol-2-amine]
## Task Put the items in sequence by EC50, from largest down. Return value: ordered labels per request.
## Result C, A, B
